molecular target: hOX2R (Homo sapiens); assay: Intracellular calcium measurements using division-arrested cells, OX2; type: cell-based; conditions: agonist orexin B at 2×EC50, * = single experiment, otherwise average of at least two, read-out: pIC50 OX2 (converted)
Sequence (O43614 whole entry): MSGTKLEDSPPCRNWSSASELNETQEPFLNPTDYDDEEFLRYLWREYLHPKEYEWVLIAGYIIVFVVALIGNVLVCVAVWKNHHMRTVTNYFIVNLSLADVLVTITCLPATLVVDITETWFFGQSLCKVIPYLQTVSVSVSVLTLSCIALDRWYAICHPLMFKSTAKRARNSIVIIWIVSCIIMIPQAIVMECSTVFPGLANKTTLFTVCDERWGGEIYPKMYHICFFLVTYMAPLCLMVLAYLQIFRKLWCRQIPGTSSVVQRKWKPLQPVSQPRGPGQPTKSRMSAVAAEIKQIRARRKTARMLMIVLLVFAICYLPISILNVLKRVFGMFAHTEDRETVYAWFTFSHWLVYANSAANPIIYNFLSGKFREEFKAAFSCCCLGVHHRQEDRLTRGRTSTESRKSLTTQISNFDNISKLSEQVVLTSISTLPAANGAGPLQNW
observed.property: IC50

CC(C)[C@@H](CNc1ccc(Cl)cc1)N(C)C(=O)c1ccccc1-c1ccccc1 [Example 59] ... > 6.31 µM
Cc1nc(-c2ccccc2)c(C(=O)N[C@H](CNc2ccc(Cl)cn2)C(C)C)s1 [Example 6] ... > 10 µM

Give IC50 for all compounds that follow.
1. CC(C)[C@@H](COc1ccc(Cl)cn1)N(C)C(=O)c1ccccc1-c1ccccc1 [Example 34]
2. CC(C)C[C@@H](CNc1ccc(Cl)cn1)NC(=O)c1ccccc1-c1ccccc1 [Example 5]
3. CC[C@@H](CNc1ccc(Cl)cn1)N(C)C(=O)c1cc(C(F)(F)F)cnc1-n1nccn1 [Example 24]
4. Cc1cc(C(=O)N(C)[C@H](CNc2ccc(Cl)cn2)C(C)C)c2ccccc2n1 [Example 51]
5. CC(C)[C@@H](CNc1nc2ccccc2n1C)N(C)C(=O)c1ccccc1-c1ccccc1 [Example 38]

Output line:
1. > 3.16 µM
2. > 10 µM
3. > 10 µM
4. > 10 µM
5. > 3.98 µM
